ASSAY_TARGET: T1, Nbp2, Q12163
T1 sequence (Q12163 103-180, looked up): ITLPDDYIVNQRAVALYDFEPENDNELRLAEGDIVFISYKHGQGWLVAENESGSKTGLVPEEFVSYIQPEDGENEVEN
METHOD_SUMMARY: SPOT array
CONDITION_SUMMARY: median of control spots 357
binders and their reported SPOT intensity
Keep it simple and answer with nothing but the number.

BINDER | SPOT intensity
QPQRTAPKPPISAPR | 276

SPOT intensity for RKNRAPPQRPRFNRD ?
490

For the binder shown here, ALKQKKIPPPFKPHL , give the reported SPOT intensity.
0

// SPOT intensity lookup, key: YVRRRPRVRLEPLLS
16

Sample PKMLPIPSKPTLFDL — what was its SPOT intensity?
19

Requested read-out: SPOT intensity. Entry: RSKRLFPVRPMATAH
46

Looking for the measured SPOT intensity of DTFLPPPPPPPSNFE , can you help?
0

May I ask what SPOT intensity has been recorded for VPPVPLPFGIPPFPM ?
1

Look at this binder and give its reported SPOT intensity. VLRFLGFPLPIFEKG
41
